Values compiled from ChEMBL document CHEMBL4813945.

experiment: Oral bioavailability in Sprague-Dawley rat at 10 mg/kg measured after 0.25 to 24 hrs hrs by LC-MS/MS analysis; assay type: ADME, organism-based; conditions: in vivo, time 0.25-24 hrs
experimental_endpoint: bioavailability (%)
API: value field is a number in %; no unit string.

Query :: Fill blank: measured bioavailability of the compound COc1cc(/C=C/c2nc(NCc3ccc(C)cc3)c3sccc3n2)cc(OC)c1OC is ____.
Result :: 29.9

* * *

biological target: Cytochrome P450 2D6 (Homo sapiens)
Sequence (P10635 whole entry): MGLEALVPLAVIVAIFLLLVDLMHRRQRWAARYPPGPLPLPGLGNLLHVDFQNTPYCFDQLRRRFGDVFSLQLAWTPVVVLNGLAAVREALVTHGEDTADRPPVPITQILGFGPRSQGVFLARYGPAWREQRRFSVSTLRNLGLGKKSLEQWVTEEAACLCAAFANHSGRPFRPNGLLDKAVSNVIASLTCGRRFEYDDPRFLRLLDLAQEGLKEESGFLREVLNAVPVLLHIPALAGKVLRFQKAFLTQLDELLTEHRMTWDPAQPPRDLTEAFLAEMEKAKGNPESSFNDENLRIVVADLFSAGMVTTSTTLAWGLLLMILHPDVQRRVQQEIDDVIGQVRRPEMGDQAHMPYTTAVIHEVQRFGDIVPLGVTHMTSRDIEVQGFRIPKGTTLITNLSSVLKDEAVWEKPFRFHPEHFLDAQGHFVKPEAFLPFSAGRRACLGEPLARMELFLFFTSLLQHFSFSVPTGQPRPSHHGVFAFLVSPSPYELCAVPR
experimental_endpoint: IC50

Query :: Fill blank: measured IC50 of the compound COc1cc(/C=C/c2nc(NCc3ccc(C)cc3)c3sccc3n2)cc(OC)c1OC is ____.
Result :: > 50 µM
